The measured values listed here are drawn from patent US8450315B2.

biological target: human PI3K isoform delta (p110 delta) (Homo sapiens, UniProt O00329); assay: p110 isoform selectivity scintillation proximity assay (SPA), delta isoform; assay type: biochemical; conditions: fold potency over delta relative to alpha, calculated from IC50 values (SPA)
Sequence (O00329 whole entry, canonical isoform): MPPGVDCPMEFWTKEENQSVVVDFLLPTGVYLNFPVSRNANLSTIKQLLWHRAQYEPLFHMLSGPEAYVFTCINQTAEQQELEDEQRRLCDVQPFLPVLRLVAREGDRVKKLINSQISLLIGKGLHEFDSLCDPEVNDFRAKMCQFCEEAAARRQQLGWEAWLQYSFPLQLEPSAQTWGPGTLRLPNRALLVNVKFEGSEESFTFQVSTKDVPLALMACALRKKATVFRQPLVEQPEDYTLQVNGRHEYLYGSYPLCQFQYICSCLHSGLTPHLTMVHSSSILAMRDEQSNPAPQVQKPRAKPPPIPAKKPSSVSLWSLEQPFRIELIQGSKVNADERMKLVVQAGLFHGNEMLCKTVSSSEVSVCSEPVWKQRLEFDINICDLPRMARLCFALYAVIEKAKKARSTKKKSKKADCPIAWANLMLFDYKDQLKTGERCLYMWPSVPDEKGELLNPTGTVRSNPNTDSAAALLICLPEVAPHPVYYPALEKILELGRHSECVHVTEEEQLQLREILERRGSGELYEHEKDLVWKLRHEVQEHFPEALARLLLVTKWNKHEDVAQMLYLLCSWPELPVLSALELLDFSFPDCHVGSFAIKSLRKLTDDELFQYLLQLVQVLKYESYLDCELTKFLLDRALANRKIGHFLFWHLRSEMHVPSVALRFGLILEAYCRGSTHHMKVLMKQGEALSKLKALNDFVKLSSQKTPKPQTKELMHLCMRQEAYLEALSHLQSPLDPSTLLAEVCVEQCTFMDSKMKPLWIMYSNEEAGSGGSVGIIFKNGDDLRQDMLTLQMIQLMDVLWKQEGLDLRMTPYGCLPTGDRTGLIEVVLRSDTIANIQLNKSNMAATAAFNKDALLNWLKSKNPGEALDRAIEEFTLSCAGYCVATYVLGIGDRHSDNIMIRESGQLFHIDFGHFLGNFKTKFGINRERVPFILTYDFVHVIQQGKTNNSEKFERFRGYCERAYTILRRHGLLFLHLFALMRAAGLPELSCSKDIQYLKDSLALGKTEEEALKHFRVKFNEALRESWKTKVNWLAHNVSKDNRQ
Sequence (P27986 whole entry partner, canonical isoform): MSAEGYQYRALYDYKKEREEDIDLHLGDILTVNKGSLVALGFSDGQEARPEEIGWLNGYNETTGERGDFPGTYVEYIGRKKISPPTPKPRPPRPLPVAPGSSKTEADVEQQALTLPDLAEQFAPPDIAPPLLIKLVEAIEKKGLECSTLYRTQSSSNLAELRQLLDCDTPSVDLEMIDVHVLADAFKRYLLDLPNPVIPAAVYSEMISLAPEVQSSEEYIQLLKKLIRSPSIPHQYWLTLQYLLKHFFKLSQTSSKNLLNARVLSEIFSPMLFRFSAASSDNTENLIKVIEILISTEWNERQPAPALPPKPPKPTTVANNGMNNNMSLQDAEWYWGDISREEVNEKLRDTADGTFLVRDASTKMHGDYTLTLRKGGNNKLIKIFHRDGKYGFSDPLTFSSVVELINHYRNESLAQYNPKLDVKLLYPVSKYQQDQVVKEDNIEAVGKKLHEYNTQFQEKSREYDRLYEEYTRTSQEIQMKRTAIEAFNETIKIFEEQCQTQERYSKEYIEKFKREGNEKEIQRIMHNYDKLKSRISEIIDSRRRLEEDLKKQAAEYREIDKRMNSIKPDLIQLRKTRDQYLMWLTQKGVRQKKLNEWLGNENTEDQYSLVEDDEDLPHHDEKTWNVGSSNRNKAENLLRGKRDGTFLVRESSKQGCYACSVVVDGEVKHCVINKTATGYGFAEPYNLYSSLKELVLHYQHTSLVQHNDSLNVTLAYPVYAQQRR
compounds and their reported alpha/delta

Provide alpha/delta, recorded with human PI3K isoform delta (p110 delta) (Homo sapiens, UniProt O00329), of CC(=O)Nc1cccc(-c2cc3nc(-c4cccc5[nH]ncc45)nc(N4CCOCC4)c3s2)c1
<10

New cases:
Provide alpha/delta, recorded with human PI3K isoform delta (p110 delta) (Homo sapiens, UniProt O00329), of Nc1nc(-c2cc3nc(-c4cnc5[nH]ccc5c4)nc(N4CCOCC4)c3s2)cs1
>10

Provide alpha/delta, recorded with human PI3K isoform delta (p110 delta) (Homo sapiens, UniProt O00329), of CN(Cc1cc2nc(-c3cccc4[nH]ncc34)nc(N3CCOCC3)c2s1)C(=O)c1ccccc1
<10

Provide alpha/delta, recorded with human PI3K isoform delta (p110 delta) (Homo sapiens, UniProt O00329), of OCc1cccc(-c2cc3nc(-c4cccc5[nH]ncc45)nc(N4CCOCC4)c3s2)c1
<10
